Below is a list of entries, each paired with its recorded PE mean fluorescence value.
targetOrSystem: T1, human RANK-L, full length, membrane-bound, expressed on HEK293T cells (human, UniProt O14788 1-317)
T1 construct: whole, on cells; also called hRANK-L
T1 sequence (looked up): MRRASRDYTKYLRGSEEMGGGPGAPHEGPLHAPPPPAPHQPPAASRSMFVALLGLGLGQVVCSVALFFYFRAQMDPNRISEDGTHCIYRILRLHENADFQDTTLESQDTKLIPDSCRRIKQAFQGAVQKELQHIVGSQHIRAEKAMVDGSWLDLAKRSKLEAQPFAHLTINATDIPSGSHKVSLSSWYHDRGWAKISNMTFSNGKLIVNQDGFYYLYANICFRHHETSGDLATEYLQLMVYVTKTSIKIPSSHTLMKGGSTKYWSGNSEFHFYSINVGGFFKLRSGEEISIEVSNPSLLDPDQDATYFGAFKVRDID
method: FACS, HEK293T with human RANK-L, 80 pM Nanobody

{"binder": "RANKL18 (VHH, not shown: small tags and cut ends) VHH: EVQLVESGGGLVQAGGSLRLSCAASGRTFSRSAMGWFRQAPGKEREFVGFITGSGGTTYYGESVKGRFTISRDNAQNPVYLQMNSLKPEDTAVYYCGVYRRTYISSTYSESSEYDYWGQGTQVTVSS", "PE mean fluorescence": 649}
{"binder": "RANKL13 (VHH, not shown: small tags and cut ends) VHH: EVQLVESGGGLVQAGGSLRLSCAASGRTFRSYPMGWFRQAPGKEREFVASITGSGGSTYYADSVKGRFTISRDNAKNTVYLQMNSLRPEDTAVYSCAAYIRPDTYLSRDYRKYDYWGQGTQVTVSS", "PE mean fluorescence": 1530}
{"binder": "RANKL9 (VHH, not shown: c-myc and His6 tags) VHH: EVQLVESGGGLVQAGGSLRLTCAASGRTFRSYAMGWFRQAPGKEREFVAAINYSGGSTNYADSVKGRFTISRDNAKNTLYLQMNSLEPEDTAVYYCAAGSGYASLSYYSTERAYTYWGQGTQVTVSS", "PE mean fluorescence": 2280}
{"binder": "RANKL6 (VHH, not shown: c-myc and His6 tags) VHH: EVQLVESGGGLMQTGGSLRLSCAASGVTYSYYTASWFRQAPGKEREFVAAISPSGNTYYADSVKGRFTISRDNGKHTMYLQMNSLNPEDTAVYFCAIRATDSIYYASSYRHWGQGTQVTVSS", "PE mean fluorescence": 1700}
{"binder": "RANKL15 (VHH, not shown: small tags and cut ends) VHH: EVQLVESGGGLVQAGGSLRLSCAAAGGTFRNYVMGWFRQAPGKEREFVTAISTGGSWTGYVDSVKDRFTISRDNTKNTVYLQMASLKPEDTAVYYCAATTPATTYLPRSERQYDYWGQGTQVTVSS", "PE mean fluorescence": 715}

Value source: patent US20110002929A1
